As shown below, each of these sequences has a reported P3_MyD88 Rank (before) value.
Biological target: MyD88^TIR (Homo sapiens)
Construct: MyD88 (residues 148–296); 6xHis; made in house; host or cells: E. coli BL21 (DE3)
Sequence (Q99836 148-296): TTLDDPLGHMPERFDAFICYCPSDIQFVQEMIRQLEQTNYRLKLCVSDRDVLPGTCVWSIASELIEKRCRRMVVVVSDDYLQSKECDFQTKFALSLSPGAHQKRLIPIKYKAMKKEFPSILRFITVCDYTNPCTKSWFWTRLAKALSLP
Assay: T‐Surf phage library (P8 and P3) selection against MyD88^TIR, four rounds, NGS read counts
Type: binding
Conditions: P3 library, 4R selection against MyD88, rank before grouping

Some solved entries appear below for comparison.
Reported P3_MyD88 Rank (before) of `QYSGTPLAHTSKFPDE` : 2832

Reported P3_MyD88 Rank (before) of `SRLCVMCWKNCVLPN` : 3279

Reported P3_MyD88 Rank (before) of `NQWRNALTAAANLSLS` : 3507

More entries:
Reported P3_MyD88 Rank (before) of `SSFREGLWHLLQLSLK` : 3198

Reported P3_MyD88 Rank (before) of `NERGHVWSSKANSLVG` : 3454

Reported P3_MyD88 Rank (before) of `SSFREGPWRLLELSKN` : 3217

Reported P3_MyD88 Rank (before) of `SENYATRPWAPDELVL` : 2999

* * *

As shown below, each of these sequences has a reported Population value.
Molecular target: MAL^TIR (Homo sapiens)
Construct: MAL (residues 79–221); 6xHis; made in house; host or cells: E. coli BL21 (DE3)
Test: T‐Surf phage library (P8 and P3) selection against MAL^TIR, four rounds, NGS read counts
Format: binding
Conditions: P3_MAL pool: P3 T-Surf phage library, 4th round of selection against MAL TIR, share of NGS reads
Please reply with the bare figure in % and do not write the unit itself.

Reported Population of `SSFREGLWRLLELNKK` : 0.00488

Reported Population of `YAFTGHLHRYLAQRGV` : 0.00488

Reported Population of `SSFREGLWRRLELSKK` : 0.00488

Reported Population of `YAFTSHLHRYLVQRGV` : 0.00827

Reported Population of `YAFTGHLHHYLVQRGV` : 0.00564

Reported Population of `SSFREGPWRLLELSKK` : 0.00338

More entries:
Reported Population of `SKDYAQSAWALEELTK` : 0.0436

Reported Population of `NQWRNALTAAANLNGW` : 0.00564

Reported Population of `LNLRTKVLNYLMRTKT` : 0.00488

Reported Population of `HLLKWKEALHQFHSWV` : 0.00488

Reported Population of `NQWRNALTAVANLSGW` : 0.00451

Reported Population of `YAFTDHLHRYLVQRGV` : 0.00451

Reported Population of `GWFLNKLSQLILKKEK` : 0.03

* * *

Molecular target: MAL^TIR (Homo sapiens, UniProt P58753)
Construct: MAL (residues 79–221); 6xHis; made in house; host or cells: E. coli BL21 (DE3)
Sequence (P58753 79-221): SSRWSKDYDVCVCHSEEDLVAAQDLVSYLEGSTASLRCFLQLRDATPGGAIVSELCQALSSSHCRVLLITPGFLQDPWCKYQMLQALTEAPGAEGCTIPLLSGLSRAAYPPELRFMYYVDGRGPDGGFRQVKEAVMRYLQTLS
Assay: T‐Surf phage library (P8 and P3) selection against MAL^TIR, four rounds, NGS read counts
Type: binding
Conditions: P8_MAL pool: P8 T-Surf phage library, 4th round of selection against MAL TIR, share of NGS reads
Protocol: T‐Surf libraries were screened against the immobilized TIR domains of two major human TLR adaptor proteins, MAL^TIR and MyD88^TIR, allowing cross‐species selection of TIR‐binding motifs with 190 946 TIR‐derived peptides in a single binding assay (Scheme 1). Enriched phage pools from the fourth round of selection were analyzed using NGS after barcoding the peptide‐coding regions of the phage pools. […]
ASSAY ENDPOINT: Population (%)
Please reply with the bare figure in % and do not write the unit itself.

Reported Population of `AFLYTLLINLTHPTNF` : 0.00432

Reported Population of `WFMNVW*A*FCVIPKX` : 0.00432

Reported Population of `AFLYTFLINLTHPTNL` : 0.00371

Reported Population of `RNFVAYLFRALANKGI` : 0.00371

Reported Population of `WFYEHLVSLILRDTKV` : 0.00371

Reported Population of `AFFLGAAEKRAGQSDDX` : 0.00371

Reported Population of `WFYERLVSLILRVTKV` : 0.00309

Reported Population of `AFLYTFLINLTHQTNF` : 0.0034

More entries:
Reported Population of `WFYERLVSLLLRDTKV` : 0.00309

Reported Population of `AFLYTFLINLAHPTNF` : 0.00278

Reported Population of `WFYKRLVSLILRDTKV` : 0.00402

Reported Population of `ALLYTFLINLTHPTNF` : 0.0034

Reported Population of `AFLYTFLINPTHPTNF` : 0.00309

Reported Population of `WFYERLVRLILRDTKV` : 0.00309

Reported Population of `AFFCAQLKSVLGNPTM` : 0.00309
